- system_tested: Full length DGKα (D21-10BG, SignalChem) (Homo sapiens, UniProt P23743)
- Construct: Full length DGKα (D21-10BG, SignalChem); purchased SignalChem D21-10BG
- Sequence (P23743 whole entry): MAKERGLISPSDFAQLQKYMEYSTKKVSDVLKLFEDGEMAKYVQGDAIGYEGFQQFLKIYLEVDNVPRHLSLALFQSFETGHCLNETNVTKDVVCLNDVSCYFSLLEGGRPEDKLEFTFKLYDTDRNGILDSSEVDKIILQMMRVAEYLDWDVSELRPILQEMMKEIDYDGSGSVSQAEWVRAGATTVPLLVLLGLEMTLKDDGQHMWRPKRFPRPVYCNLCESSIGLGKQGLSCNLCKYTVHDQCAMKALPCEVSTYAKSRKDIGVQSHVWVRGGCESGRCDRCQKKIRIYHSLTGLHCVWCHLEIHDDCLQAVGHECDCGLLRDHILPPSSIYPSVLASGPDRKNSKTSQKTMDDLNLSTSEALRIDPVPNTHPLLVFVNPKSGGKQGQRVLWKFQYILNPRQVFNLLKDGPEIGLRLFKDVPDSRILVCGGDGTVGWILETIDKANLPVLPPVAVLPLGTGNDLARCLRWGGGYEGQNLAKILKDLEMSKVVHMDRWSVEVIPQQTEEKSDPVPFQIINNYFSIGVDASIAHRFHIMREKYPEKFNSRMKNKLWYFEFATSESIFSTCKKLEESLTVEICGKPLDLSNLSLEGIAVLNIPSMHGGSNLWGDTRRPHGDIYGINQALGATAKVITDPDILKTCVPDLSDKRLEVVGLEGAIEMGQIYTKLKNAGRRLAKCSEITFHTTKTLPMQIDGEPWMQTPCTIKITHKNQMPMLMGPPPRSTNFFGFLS
- protocol_summary: Biochemical DGK IC50 assay (ADP-Glo, lipid micelle substrate), DGKα
- experimental_parameters: 1 hour preincubation, 1 hour reaction, room temperature
recorded_endpoint: IC50 (µM)
Give just the number in µM; leave the unit off.

{"molecule": "CCc1nc2cc(C(C)N3C[C@H](C)N(c4nc(=O)n(C)c5c4nc(CC#N)n5CC)C[C@H]3C)ccc2s1 (mixture of isomers) [Compound A95]", "IC50 [µM]": 50.5}
{"molecule": "CCn1c(CC#N)nc2c(N3C[C@@H](C)N(C(C)c4ccc5c(c4)OC(C)(CC)O5)C[C@@H]3C)nc(=O)n(C)c21 (stereo partly drawn) [Compound A168]", "IC50 [µM]": 64.3}
{"molecule": "COC[C@H]1CN(C(C)c2ccc3c(c2)OC(C)(C)CO3)[C@H](C)CN1c1nc(=O)n(C)c2c1nc(CC#N)n2C (single isomer, unassigned) [Compound A12b]", "IC50 [µM]": 27.4}
{"molecule": "CCn1c(CC#N)nc2c(N3C[C@@H](C)N(C(C)c4ccc5c(c4)C(=O)N(C(C)C)C5=O)C[C@@H]3C)nc(=O)n(C)c21 (stereo partly drawn) [Compound A178]", "IC50 [µM]": 92.4}
{"molecule": "CC[C@@H]1CN(c2nc(=O)n(C)c3c2nc(CC#N)n3C)[C@@H](C)CN1C(C)c1ccc2ncc(C)nc2c1 (single isomer, unassigned) [Compound A50b]", "IC50 [µM]": 13.6}
{"molecule": "CC[C@H]1CN(C(C)c2ccc3c(c2)OC(C)(C)CO3)[C@H](CC)CN1c1nc(=O)n(C)c2c1nc(CC#N)n2C (single isomer, unassigned) [Compound A64a]", "IC50 [µM]": 5.28}
{"molecule": "CC(c1cccc(C(F)(F)F)c1)N1C[C@H](C)N(c2nc(=O)n(C)c3c2nc(CC#N)n3C)C[C@H]1C (stereo partly drawn) [Compound A41]", "IC50 [µM]": 9.7}
{"molecule": "CC[C@H]1CN(C(C)c2ccc(C(F)(F)F)cc2)[C@H](CC)CN1c1nc(=O)n(C)c2c1nc(CC#N)n2C (single isomer, unassigned) [Compound A149b]", "IC50 [µM]": 0.308}

The molecule listed as Cc1cnc2ccc(C(C)N3C[C@H](C)N(c4nc(=O)n(C)c5c4nc(CC#N)n5C)C[C@H]3C)cc2n1 (single isomer, unassigned) [Compound A49a] has a reported IC50 of 77.9
